system: Olfr740 (Mus musculus, UniProt E9PV79)
Sequence (E9PV79 entry or part of it): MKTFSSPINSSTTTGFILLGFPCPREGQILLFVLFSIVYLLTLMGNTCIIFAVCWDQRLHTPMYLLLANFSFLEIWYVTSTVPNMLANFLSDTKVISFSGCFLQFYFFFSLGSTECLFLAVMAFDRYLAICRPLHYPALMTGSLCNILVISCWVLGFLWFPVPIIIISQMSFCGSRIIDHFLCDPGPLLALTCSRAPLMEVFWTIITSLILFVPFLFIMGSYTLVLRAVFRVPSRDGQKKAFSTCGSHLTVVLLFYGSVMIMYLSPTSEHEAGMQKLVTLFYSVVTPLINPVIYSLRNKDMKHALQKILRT
method.description: Indole antagonist dose-response, cAMP HTRF in HEK293T, vs indole EC80
Format: cell-based
experimental.context: Table 22, first listing (r7-r45); vs indole EC80; read-out: Olfr740 IC50
pIC50: −log10 of the molar value.
assay.endpoint: pIC50

[[record]]
compound = "CC1CC(C)(c2ccccc2)CO1 (stereo not drawn) [2,4-dimethyl-4-phenyloxolane]"
assay_endpoint = "pIC50"
experimental_result = 4.29

[[record]]
compound = "CC(CC=O)CCc1ccccc1 (stereo not drawn) [3-methyl-5-phenylpentanal]"
assay_endpoint = "pIC50"
experimental_result = 4.79

[[record]]
compound = "C=CCCC(=O)C1=CCCC(C)(C)C1"
assay_endpoint = "pIC50"
experimental_result = 4.20

[[record]]
compound = "CC1C(C)(C)C2=C(C(=O)CCC2)C1(C)C (stereo not drawn)"
assay_endpoint = "pIC50"
experimental_result = 4.92

[[record]]
compound = "C=C1CC[C@H]2O[C@]2(C)CC[C@@H]2[C@@H]1CC2(C)C"
assay_endpoint = "pIC50"
experimental_result = 4.87

[[record]]
compound = "c1nc2c(o1)CCCCCCCCCC2"
assay_endpoint = "pIC50"
experimental_result = 5.26

[[record]]
compound = "CC(C)(C)C1CCC(=O)CC1 [4-t-butylcyclohexanone]"
assay_endpoint = "pIC50"
experimental_result = 4.97

[[record]]
compound = "CC1(C)CCC[C@]2(C)CC(=O)CC[C@@H]12 (racemic)"
assay_endpoint = "pIC50"
experimental_result = 5.71

[[record]]
compound = "C/C=C/C(=O)C1C(C)=CCCC1(C)C (racemic)"
assay_endpoint = "pIC50"
experimental_result = 3.86


* * *

Test system: OR11A1, or the OR2M3 olfactory receptor
method.description: Geonol olfactory receptor antagonist cell-based screening, inhibitory dose-response vs geonol EC80
Set-up: species or system human
experimental.context: geonol at EC80
Label scheme for % Inhibition: lower than 50% is false (0), 50% and above is true (1).

[[record]]
compound = "CC=CC(=O)C1C(C)C=CCC1(C)C (centres unmarked)"
cat = "false (0)"

[[record]]
compound = "Cc1ccc(C(C)C)c(O)c1"
cat = "true (1)"

[[record]]
compound = "CCCCCC/C=C/C=O"
cat = "false (0)"

[[record]]
compound = "CC(C)(C)c1ccccc1O"
cat = "true (1)"

[[record]]
compound = "CC=Cc1ccc(OCC)c(O)c1"
cat = "false (0)"

[[record]]
compound = "CCC=CCCC=CC=O"
cat = "true (1)"

[[record]]
compound = "CC(C)Cc1ccc2ccccc2n1"
cat = "false (0)"

[[record]]
compound = "CC(C)=CCC[C@@H](C)CC#N [(−)-(R)-3,7-dimethyl-6-octenenitrile]"
cat = "false (0)"


* * *

Each item that follows carries a reported % Remaining in human sensory tests.
System: geonol malodor (earthy/moss odor) perception
method.description: Sensory evaluation of geonol earthy/moss odor in iso-intense binary mixtures (glass jars)
Type: in vivo, human
experimental.context: iso-intense binary mixture
Marks after values point to notes of the source that are not given here.
assay.endpoint: % Remaining in human sensory tests

[[record]]
compound = "CC(=O)OCCc1ccccc1 [phenyl ethyl acetate]"
assay_endpoint = "% Remaining in human sensory tests"
experimental_result = "47* %"

[[record]]
compound = "CC(C)(C)c1ccccc1O"
assay_endpoint = "% Remaining in human sensory tests"
experimental_result = "46* %"

[[record]]
compound = "CC=Cc1ccc(OCC)c(O)c1"
assay_endpoint = "% Remaining in human sensory tests"
experimental_result = "34* %"

[[record]]
compound = "CC=CC(=O)C1C(C)C=CCC1(C)C (stereo not drawn)"
assay_endpoint = "% Remaining in human sensory tests"
experimental_result = "66* %"

[[record]]
compound = "CC(=O)CCC=C(C)CCC=C(C)C"
assay_endpoint = "% Remaining in human sensory tests"
experimental_result = "45* %"

[[record]]
compound = "Cc1ccc2c(c1)CC(C)(CO)C2 (stereo not drawn)"
assay_endpoint = "% Remaining in human sensory tests"
experimental_result = "37* %"


* * *

system: OR51E1 olfactory receptor (Homo sapiens, UniProt Q8TCB6)
Construct: expressed in transfected cells
Sequence (Q8TCB6 whole entry): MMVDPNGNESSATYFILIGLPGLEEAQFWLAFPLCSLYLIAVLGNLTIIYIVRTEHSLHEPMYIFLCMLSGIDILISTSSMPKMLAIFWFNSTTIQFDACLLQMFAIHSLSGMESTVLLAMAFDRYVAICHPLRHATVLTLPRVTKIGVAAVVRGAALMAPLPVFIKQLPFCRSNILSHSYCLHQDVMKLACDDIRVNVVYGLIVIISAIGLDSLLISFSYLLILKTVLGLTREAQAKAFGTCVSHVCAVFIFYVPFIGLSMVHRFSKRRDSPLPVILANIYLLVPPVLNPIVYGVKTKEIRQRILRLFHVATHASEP
method.description: Butyric acid olfactory receptor antagonist cell-based dose-response vs butyric acid EC80
experimental.context: Table 20, spiro analogues; read-out: Inhibition (%)
assay.endpoint: Emax (%)

[[record]]
molecule = "CC(=O)OC1C(C)(C)CCCC12CC(C)=CC2C (stereo not drawn)"
system = "OR51E1 olfactory receptor (Homo sapiens, UniProt Q8TCB6)"
assay_endpoint = "Emax"
u = "%"
experimental_result = 131

[[record]]
molecule = "C=CCC1(OC)C(C)CCCC1C (stereo not drawn)"
system = "OR51E1 olfactory receptor (Homo sapiens, UniProt Q8TCB6)"
assay_endpoint = "Emax"
u = "%"
experimental_result = 61

[[record]]
molecule = "CC1(C)CCCC2(CC=CC2)C1=O [9,9-dimethylspiro[4.5]dec-2-en-10-one]"
system = "OR51E1 olfactory receptor (Homo sapiens, UniProt Q8TCB6)"
assay_endpoint = "Emax"
u = "%"
experimental_result = 23

[[record]]
molecule = "C=C(C)CC1(CC(=C)C)CCCC(C)(C)C1O (stereo not drawn)"
system = "OR51E1 olfactory receptor (Homo sapiens, UniProt Q8TCB6)"
assay_endpoint = "Emax"
u = "%"
experimental_result = 110

[[record]]
molecule = "CC1=C(C)CC2(CCCC(C)(C)C2OC=O)C1 (stereo not drawn)"
system = "OR51E1 olfactory receptor (Homo sapiens, UniProt Q8TCB6)"
assay_endpoint = "Emax"
u = "%"
experimental_result = 69

[[record]]
molecule = "CC1CC=CCC12CCCC(C)(C)C2OC=O (stereo not drawn)"
system = "OR51E1 olfactory receptor (Homo sapiens, UniProt Q8TCB6)"
assay_endpoint = "Emax"
u = "%"
experimental_result = 129


* * *

Test system: OR11A1, or the OR2M3 olfactory receptor
method.description: Geonol olfactory receptor antagonist cell-based screening, inhibitory dose-response vs geonol EC80
Parameters: species or system human
experimental.context: geonol at EC80
Each item that follows carries a reported % Inhibition.
assay.endpoint: % Inhibition (%)

[[record]]
molecular_string = "CC(=O)CCC=C(C)CCC=C(C)C"
experimental_result = 50

[[record]]
molecular_string = "CC(C)(C)c1ccc(CCC=O)cc1"
experimental_result = 50

[[record]]
molecular_string = "C=C(C)[C@@H]1CCC2=CC(=O)C[C@@H](C)[C@]2(C)C1"
experimental_result = 50

